Examples of binders with documented PV neutralization % (Ab 1 ug/mL) follow.
# tested-target: SARS-CoV-2 spike protein bearing furin mutation and truncation in retention sequence (on pseudoviral envelope) (SARS-CoV-2, UniProt P0DTC2 14-1273)
# assay-procedure: cell-based or functional assay

binder	PV neutralization % (Ab 1 ug/mL) / %
YANG-1302 (antibody, V domains shown) VH: QVQLVESGGGAVQPGRSLRLSCRASGFTFSSFGMNWVRQVPGKGLVWVAGIWYDGRNKYYADSVKGRFTISRENSKNMLYLQMNSLRAEDTAVYYCARDQDSGFDGNWFGPWGQGTMVTVSS VL: SYELTQPPSMSVSPGQTASITCSGDNLGDKYVCWYQQRPGQSPVMVIFQDSTRPSGIPERFSGSNSGNTATLTISGTQAMDEADYYCQAWDSNTAVFGGGTKLTVL	60.3
YANG-2110 (antibody, V domains shown) VH: EVQLVESGGGLIQPGGSLRLSCAASGFIVSRNYMSWVRQAPGKGLDWVSVIYSGGSTYYADSVKGRFTISRDNSKNTLYLQMNSLRAEDTAVYYCARSIAVAGEGLDSWGQGTLVTVSS VL: EIVMTQSPATLSLSPGDRATLSCRASQSVSNIFISWYQQKPGQAPRLLIYGASIRATDIPARFSGSGSGTDFTLTISSLQPEDFAIYFCQQDYNLPLTFGGGTKVEIK	99.9
YANG-2111 (antibody, V domains shown) VH: GVQLVESGGGLVQPGRSLRLSCAASGFTFDDYALHWVRQVPGKGLEWVSSISWNSDDLGYADSVEGRFTISRDNAKNSLYLQMSSLRTEDTALYYCVKDTRAHYDILAGYRGLDSWGQGTLVTVSS VL: DIVMTQSPLSLPVTPGEPASISCRSTQSLLHSNGYNFLDWYLQKPGQSPQLLIYLGSNRASGVPDRFSGSGSGTDFSLKISRVEAEDIGIYYCIQGLQTPITFGQGTRLEIK	86.8
YANG-1305 (antibody, V domains shown) VH: QVQLVESGGGVVQPGKSLRLSCAASGFAFSSFGMHWVRQAPGTGLEWLAIISFEGTKKYYADSMKGRITISRDNSKNTLYLQMNSLRAEDTAVYYCAADYGDYDDYYYGVHVWGQGTTVTVSS VL: DIQMTQSPSSLSASVGDRVTITCRASQGIANYLAWYQQKPGKVPKLLIYATSTLQSGVPSRFSGSGSGTDFTLTISSLQPEDVAIYYCQKYDSAPFTFGPGTKVDFK	60.5
YANG-2204 (antibody, V domains shown) VH: QMQLVQSGAEVKKPGASVKFSCKTSGYTFTNYYMVWVRQAPGQGLEWMGIIKPSGGNTIYAQKFQGRVTMTRDTSTNTVYMDLTSLRSEDTAVYYCARTGDRAFDVWGQGTMVTVSS VL: QSVLTQPPSVSAAPGQKVTISCSGSSSNIGNNYVSWYQQLPGTAPKLLIYDNNKRPSGIPDRFSGSKSGTSATLGITGLQTGDEADYYCGTWDSSLGAGVFGGGTKLTVL	41
